Tested on: Puccinia recondita f. sp. tritici
Experiment description: Test C: test suspension sprayed on wheat seedlings, inoculated next day with Puccinia recondita f. sp. tritici (wheat leaf rust), visual disease rating
Assay type: in vivo
Assay setup: 10 ppm test suspension

>  <Structure as smiles>
N#CCOC(=O)c1cnn(Cc2ccc(-c3noc(C(F)(F)F)n3)cc2)c1

>  <Test C disease control rating (%)>
100

$$$$
>  <Structure as smiles>
O=C(NCC(F)F)c1coc(Cc2ccc(-c3noc(C(F)(F)F)n3)cc2)n1

>  <Test C disease control rating (%)>
100

$$$$
>  <Structure as smiles>
CCOC(=O)c1cnn(COc2ccc(-c3noc(C(F)(F)F)n3)cc2)c1

>  <Test C disease control rating (%)>
68

$$$$
>  <Structure as smiles>
COC(=O)c1ccc2c(c1)nnn2Cc1ccc(-c2noc(C(F)(F)F)n2)cc1

>  <Test C disease control rating (%)>
96

$$$$

###

Tested on: Puccinia recondita f. sp. tritici
Experiment description: Test C: test suspension sprayed on wheat seedlings, inoculated next day with Puccinia recondita f. sp. tritici (wheat leaf rust), visual disease rating
Format: in vivo
Assay setup: Rate 10 ppm test suspension, relative to the controls
Listed here: items and their measured Test C rating (% disease control).

>  <Compound>
CC1(C)OCC(COC(=O)c2cnn(Cc3ccc(-c4noc(C(F)(F)F)n4)cc3)c2)O1 (centres unmarked)

>  <Test C rating (% disease control) / %>
0

$$$$
>  <Compound>
O=C(NCC(F)(F)F)c1cnn(Cc2ccc(-c3noc(C(F)(F)F)n3)cc2)c1

>  <Test C rating (% disease control) / %>
100

$$$$
>  <Compound>
O=C(NCCF)c1coc(Cc2ccc(-c3noc(C(F)(F)F)n3)cc2)n1

>  <Test C rating (% disease control) / %>
100

$$$$
>  <Compound>
OC(c1ccc(-c2noc(C(F)(F)F)n2)cc1)c1cccc(F)c1 (racemic)

>  <Test C rating (% disease control) / %>
0

$$$$
>  <Compound>
O=C(OCC1CC1)c1cnn(Cc2ccc(-c3noc(C(F)(F)F)n3)cc2)c1

>  <Test C rating (% disease control) / %>
100

$$$$
>  <Compound>
O=C(NCCCC(F)(F)F)c1coc(Cc2ccc(-c3noc(C(F)(F)F)n3)cc2)n1

>  <Test C rating (% disease control) / %>
97

$$$$
>  <Compound>
CCCOC(=O)c1cnn(C(C)c2ccc(-c3noc(C(F)(F)F)n3)s2)c1 (racemic)

>  <Test C rating (% disease control) / %>
100

$$$$
>  <Compound>
CCOC(=O)c1cccc(Cc2ccc(-c3noc(C(F)(F)F)n3)cc2)c1

>  <Test C rating (% disease control) / %>
0

$$$$

###

Listed here: items and their measured Test A rating (% disease control).
Test system: Phakopsora pachyrhizi
Experiment description: Test A: test suspension sprayed on soybean seedlings, inoculated next day with Phakopsora pachyrhizi (Asian soybean rust), visual disease rating
Format: in vivo
Assay setup: Rate 10 ppm test suspension, relative to the controls
Description: General protocol for preparing test suspensions for Tests A-C: the test compounds were first dissolved in acetone in an amount equal to 3% of the final volume and then suspended at the desired concentration (in ppm) in acetone and purified water (50/50 mix by volume) containing 250 ppm of the surfactant PEG400 (polyhydric alcohol esters). The resulting test suspensions were then used in Tests A-C. The test suspension was sprayed to the point of run-off on soybean seedlings. […]

>  <Molecule>
COC(=O)c1cccn(Cc2ccc(-c3noc(C(F)(F)F)n3)cc2)c1=O

>  <Test A rating (% disease control), %>
90

$$$$
>  <Molecule>
FC(F)(F)c1nc(-c2ccc(Cn3cc4cnc(Cl)nc4n3)cc2)no1

>  <Test A rating (% disease control), %>
100

$$$$
>  <Molecule>
OC(c1ccc(-c2noc(C(F)(F)F)n2)cc1)c1cccc(F)c1 (racemic)

>  <Test A rating (% disease control), %>
100

$$$$
>  <Molecule>
CCOC(=O)c1cnn(CCCc2ccc(-c3noc(C(F)(F)F)n3)cc2)c1

>  <Test A rating (% disease control), %>
100

$$$$
>  <Molecule>
O=C(NC1CCC(F)(F)CC1)c1coc(Cc2ccc(-c3noc(C(F)(F)F)n3)cc2)n1

>  <Test A rating (% disease control), %>
95

$$$$
>  <Molecule>
O=C(OCCN1CCOCC1)c1cnn(Cc2ccc(-c3noc(C(F)(F)F)n3)cc2)c1

>  <Test A rating (% disease control), %>
100

$$$$
>  <Molecule>
O=C(NCc1ccccc1)c1cnn(Cc2ccc(-c3noc(C(F)(F)F)n3)cc2)c1

>  <Test A rating (% disease control), %>
100

$$$$
>  <Molecule>
O=C(OCc1ccccn1)c1cnn(Cc2ccc(-c3noc(C(F)(F)F)n3)cc2)c1

>  <Test A rating (% disease control), %>
100

$$$$
>  <Molecule>
O=C(OCCCCl)c1cnn(Cc2ccc(-c3noc(C(F)(F)F)n3)cc2)c1

>  <Test A rating (% disease control), %>
100

$$$$
>  <Molecule>
FC(F)(F)c1nc(-c2ccc(Cn3ncc4ncccc43)cc2)no1

>  <Test A rating (% disease control), %>
100

$$$$
>  <Molecule>
CCCCCOC(=O)c1cnn(Cc2ccc(-c3noc(C(F)(F)F)n3)cc2)c1

>  <Test A rating (% disease control), %>
100

$$$$
>  <Molecule>
O=C(NCCC(F)(F)F)c1coc(COc2ccc(-c3noc(C(F)(F)F)n3)cc2)n1

>  <Test A rating (% disease control), %>
97

$$$$
>  <Molecule>
CCOC(=O)COC(=O)c1cnn(Cc2ccc(-c3noc(C(F)(F)F)n3)cc2)c1

>  <Test A rating (% disease control), %>
100

$$$$
>  <Molecule>
O=C(NCC(F)(F)F)c1csc(Cc2ccc(-c3noc(C(F)(F)F)n3)cc2)n1

>  <Test A rating (% disease control), %>
100

$$$$
>  <Molecule>
CC(=O)Nc1cnn(Cc2ccc(-c3noc(C(F)(F)F)n3)cc2)c1

>  <Test A rating (% disease control), %>
87

$$$$
>  <Molecule>
O=C(Nc1ccccc1)c1cnn(Cc2ccc(-c3noc(C(F)(F)F)n3)cc2)c1

>  <Test A rating (% disease control), %>
100

$$$$
>  <Molecule>
O=C(c1csc(Cc2ccc(-c3noc(C(F)(F)F)n3)cc2)n1)N1CCOCC1

>  <Test A rating (% disease control), %>
100

$$$$
>  <Molecule>
COC(=O)c1nccn(Cc2ccc(-c3noc(C(F)(F)F)n3)cc2)c1=O

>  <Test A rating (% disease control), %>
86

$$$$
>  <Molecule>
COC(=O)c1csc(Cc2ccc(-c3noc(C(F)(F)F)n3)cc2)c1

>  <Test A rating (% disease control), %>
100

$$$$
>  <Molecule>
O=C(NCC(F)(F)F)c1csc(COc2ccc(-c3noc(C(F)(F)F)n3)cc2)n1

>  <Test A rating (% disease control), %>
100

$$$$
>  <Molecule>
CNC(=O)c1cnn(CCCc2ccc(-c3noc(C(F)(F)F)n3)cc2)c1

>  <Test A rating (% disease control), %>
100

$$$$
>  <Molecule>
O=C(NCC=C(Cl)Cl)c1coc(Cc2ccc(-c3noc(C(F)(F)F)n3)cc2)n1

>  <Test A rating (% disease control), %>
100

$$$$
>  <Molecule>
Nc1ncnc2c1cnn2Cc1ccc(-c2noc(C(F)(F)F)n2)cc1

>  <Test A rating (% disease control), %>
100

$$$$
>  <Molecule>
CCCCOC(=O)c1cnn(Cc2ccc(-c3noc(C(F)(F)F)n3)cc2)c1

>  <Test A rating (% disease control), %>
100

$$$$
>  <Molecule>
COCCNC(=O)c1csc(COc2ccc(-c3noc(C(F)(F)F)n3)cc2)n1

>  <Test A rating (% disease control), %>
96

$$$$
>  <Molecule>
O=C(NCC(F)(F)F)c1coc(COc2ccc(-c3noc(C(F)(F)F)n3)cc2)n1

>  <Test A rating (% disease control), %>
100

$$$$
>  <Molecule>
CS(=O)(=O)CCOC(=O)c1cnn(Cc2ccc(-c3noc(C(F)(F)F)n3)cc2)c1

>  <Test A rating (% disease control), %>
100

$$$$
>  <Molecule>
N#Cc1cccn(Cc2ccc(-c3noc(C(F)(F)F)n3)cc2)c1=O

>  <Test A rating (% disease control), %>
100

$$$$
>  <Molecule>
FC(F)(F)c1nc(-c2ccc(Cn3ncc4c(I)ccnc43)cc2)no1

>  <Test A rating (% disease control), %>
96

$$$$
>  <Molecule>
CC(C)CCOC(=O)c1cnn(Cc2ccc(-c3noc(C(F)(F)F)n3)cc2)c1

>  <Test A rating (% disease control), %>
100

$$$$
>  <Molecule>
O=C(NCC(F)(F)F)c1cnn(Cc2ccc(-c3noc(C(F)(F)F)n3)cc2)c1

>  <Test A rating (% disease control), %>
100

$$$$
>  <Molecule>
CCONC(=O)c1cnn(Cc2ccc(-c3noc(C(F)(F)F)n3)cc2)c1

>  <Test A rating (% disease control), %>
100

$$$$
>  <Molecule>
COC(=O)c1ccc(=O)n(Cc2ccc(-c3noc(C(F)(F)F)n3)cc2)c1

>  <Test A rating (% disease control), %>
100

$$$$
>  <Molecule>
O=C(NCCC(F)(F)F)c1csc(Cc2ccc(-c3noc(C(F)(F)F)n3)cc2)n1

>  <Test A rating (% disease control), %>
100

$$$$
